Biological target: recombinant human Meningioma Expressed Antigen 5 (MGEA5), also referred to as O-GlcNAcase (OGA) (Homo sapiens, UniProt O60502)
Construct: Full length OGA enzyme was purchased at OnGene (cat #TP322411); purchased OnGene (so in the source)
Sequence (O60502 1-916): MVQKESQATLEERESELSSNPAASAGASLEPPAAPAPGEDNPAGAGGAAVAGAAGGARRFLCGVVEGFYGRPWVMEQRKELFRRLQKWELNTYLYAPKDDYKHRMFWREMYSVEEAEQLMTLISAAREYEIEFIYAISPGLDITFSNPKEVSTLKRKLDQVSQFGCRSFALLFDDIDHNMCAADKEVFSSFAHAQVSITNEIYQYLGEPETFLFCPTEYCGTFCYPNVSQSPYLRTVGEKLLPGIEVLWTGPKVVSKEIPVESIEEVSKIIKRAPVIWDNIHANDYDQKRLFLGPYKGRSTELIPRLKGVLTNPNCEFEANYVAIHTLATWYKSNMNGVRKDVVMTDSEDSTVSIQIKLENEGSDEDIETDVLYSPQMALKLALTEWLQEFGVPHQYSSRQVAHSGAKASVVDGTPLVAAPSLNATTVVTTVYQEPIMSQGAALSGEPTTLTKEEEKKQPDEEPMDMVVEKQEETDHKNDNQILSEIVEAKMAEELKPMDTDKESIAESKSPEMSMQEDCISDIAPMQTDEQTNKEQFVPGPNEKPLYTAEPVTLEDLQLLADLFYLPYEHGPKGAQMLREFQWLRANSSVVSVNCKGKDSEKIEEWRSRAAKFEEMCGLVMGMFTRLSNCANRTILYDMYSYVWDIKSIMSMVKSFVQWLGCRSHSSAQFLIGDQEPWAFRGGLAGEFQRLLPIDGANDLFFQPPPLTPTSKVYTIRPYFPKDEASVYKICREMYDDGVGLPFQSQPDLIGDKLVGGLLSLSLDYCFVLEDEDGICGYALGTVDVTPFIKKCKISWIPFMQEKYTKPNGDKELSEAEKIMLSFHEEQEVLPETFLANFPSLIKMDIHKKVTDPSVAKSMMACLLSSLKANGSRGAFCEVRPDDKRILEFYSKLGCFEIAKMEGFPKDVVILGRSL
Test: OGA biochemical assay (inhibition of FM-GlcNAc hydrolysis, fluorescence)
Settings: read-out: Enzymatic hOGA, pIC50 (converted)
MEASUREMENT TYPE: IC50 (nM)
Express your answer in nM, writing the number without its unit.

Examples from the recorded data:
>>> df
                                   molecule  measurement_type  experimental_value
0  Cc1cc(CO[C@H]2CCCN([C@H](C)c3ccc4c(n3)OCCO4)C2)cc(C)n1 (mixture of isomers) [Product 111]              IC50                12.6
1  Cc1cc(C2CCCN(C(C)c3nc4c(cc3F)OCCO4)C2)c(F)c(C)n1 (stereo not drawn) [Product 189]              IC50                7.94

Enquiry: Endpoint output: IC50 of Cc1cc([C@H]2CCCN([C@@H](C)c3ccc4c(c3)OCC4)C2)cc(C)n1 (racemic) [Product 4] . Value?
Return: 5.01
